Below, each entry is listed alongside its reported IC50.
# TARGET_OR_SYSTEM: 3',5'-cyclic-AMP phosphodiesterase 4B (Homo sapiens, UniProt Q07343)
# Sequence (Q07343 whole entry): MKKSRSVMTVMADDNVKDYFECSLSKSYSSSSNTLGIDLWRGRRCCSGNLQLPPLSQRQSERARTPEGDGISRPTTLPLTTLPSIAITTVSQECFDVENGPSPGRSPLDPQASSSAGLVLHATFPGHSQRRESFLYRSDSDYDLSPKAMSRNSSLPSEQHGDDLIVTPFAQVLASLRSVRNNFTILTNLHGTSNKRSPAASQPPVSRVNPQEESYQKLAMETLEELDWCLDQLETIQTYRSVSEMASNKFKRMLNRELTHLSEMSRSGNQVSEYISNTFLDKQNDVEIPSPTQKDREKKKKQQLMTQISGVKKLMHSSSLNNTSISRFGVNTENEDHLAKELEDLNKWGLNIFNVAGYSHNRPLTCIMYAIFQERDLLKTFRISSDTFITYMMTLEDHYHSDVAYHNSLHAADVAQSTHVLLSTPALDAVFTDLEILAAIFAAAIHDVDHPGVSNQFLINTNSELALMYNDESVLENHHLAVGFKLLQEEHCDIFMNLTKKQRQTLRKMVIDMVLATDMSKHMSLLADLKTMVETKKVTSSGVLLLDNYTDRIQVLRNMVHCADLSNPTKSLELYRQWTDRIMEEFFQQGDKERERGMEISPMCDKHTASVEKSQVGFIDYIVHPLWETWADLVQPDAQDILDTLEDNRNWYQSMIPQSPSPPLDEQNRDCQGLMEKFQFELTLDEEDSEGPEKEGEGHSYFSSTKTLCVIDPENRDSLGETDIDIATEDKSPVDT
# TEST_SUMMARY: Inhibition of human recombinant PDE4B assessed reduction in [3H]cAMP hydrolysis preincubated with enzyme for 5 mins prior to substrate addition measured after 20 mins by scintillation proximity assay

Below, 3 compounds whose answers are already recorded.
COc1ccc2nc(COc3ccc(-c4nn(C)cc4-c4ccncc4)cc3)ccc2c1 = 2.56 µM
COc1cc(COc2ccc(-c3nn(C)cc3-c3ccncc3)cc2)nc2ccccc12 = 1.79 µM
COc1cc(COc2ccc(-c3c(-c4ccncc4)cnn3C)cc2)nc2ccccc12 = 5.06 µM

Input line: Please tell me: IC50 of `COc1cc2ccccc2nc1COc1ccc(-c2c(-c3ccncc3)cnn2C)cc1` , system 3',5'-cyclic-AMP phosphodiesterase 4B (Homo sapiens, UniProt Q07343)?
Output line: 31.5 µM

Input line: Queued: `COc1ccc2nc(COc3ccc(-c4c(-c5ccncc5)cnn4C)cc3)ccc2c1`
Output line: 7.1 µM

Input line: Queued: `COc1cc2ccccc2nc1COc1ccc(-c2nn(C)cc2-c2ccncc2)cc1`
Output line: 3.43 µM

###

# TARGET_OR_SYSTEM: cGMP-inhibited 3',5'-cyclic phosphodiesterase 3B (Homo sapiens)
# Sequence (Q13370 whole entry): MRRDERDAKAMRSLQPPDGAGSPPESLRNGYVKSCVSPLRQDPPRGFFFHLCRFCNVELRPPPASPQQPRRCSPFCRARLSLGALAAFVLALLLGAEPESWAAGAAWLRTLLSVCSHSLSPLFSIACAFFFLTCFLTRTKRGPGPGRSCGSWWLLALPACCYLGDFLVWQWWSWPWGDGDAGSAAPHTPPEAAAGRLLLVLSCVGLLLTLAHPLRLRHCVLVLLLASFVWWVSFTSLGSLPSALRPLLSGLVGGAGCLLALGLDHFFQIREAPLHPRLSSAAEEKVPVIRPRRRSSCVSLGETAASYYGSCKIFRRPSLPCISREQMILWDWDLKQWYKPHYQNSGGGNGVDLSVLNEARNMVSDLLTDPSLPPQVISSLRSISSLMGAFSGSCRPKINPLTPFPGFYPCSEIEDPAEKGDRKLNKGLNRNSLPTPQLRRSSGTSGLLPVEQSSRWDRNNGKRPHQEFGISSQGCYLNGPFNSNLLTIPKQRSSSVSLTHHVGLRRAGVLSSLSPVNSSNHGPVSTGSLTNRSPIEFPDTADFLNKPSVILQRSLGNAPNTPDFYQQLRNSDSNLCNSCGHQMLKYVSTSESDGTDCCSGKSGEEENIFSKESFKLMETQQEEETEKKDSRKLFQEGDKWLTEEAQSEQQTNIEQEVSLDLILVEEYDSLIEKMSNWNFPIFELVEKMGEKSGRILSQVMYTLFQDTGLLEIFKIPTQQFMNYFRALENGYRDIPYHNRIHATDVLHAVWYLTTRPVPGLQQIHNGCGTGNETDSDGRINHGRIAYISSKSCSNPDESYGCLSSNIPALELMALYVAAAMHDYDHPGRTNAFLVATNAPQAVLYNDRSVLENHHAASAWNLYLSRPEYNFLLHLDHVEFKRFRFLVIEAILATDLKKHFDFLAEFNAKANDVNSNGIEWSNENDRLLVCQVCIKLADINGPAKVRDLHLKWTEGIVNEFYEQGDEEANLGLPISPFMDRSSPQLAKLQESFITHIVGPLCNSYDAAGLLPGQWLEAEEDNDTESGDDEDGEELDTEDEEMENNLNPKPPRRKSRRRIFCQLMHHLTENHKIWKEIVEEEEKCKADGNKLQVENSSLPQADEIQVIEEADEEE
# TEST_SUMMARY: Inhibition of human recombinant PDE3B assessed reduction in [3H]cAMP hydrolysis preincubated with enzyme for 5 mins prior to substrate addition measured after 20 mins by scintillation proximity assay
METRIC_NAME: pIC50
Formally, pIC50 is defined as -log10 of the concentration c, with c in mol/L.

COc1cc(COc2ccc(-c3nn(C)cc3-c3ccncc3)cc2)nc2ccccc12 = 5.41
COc1ccc2nc(COc3ccc(-c4c(-c5ccncc5)cnn4C)cc3)ccc2c1 = 5.52
COc1cc2ccccc2nc1COc1ccc(-c2nn(C)cc2-c2ccncc2)cc1 = 4.08

Input line: Which measured pIC50 value corresponds to `COc1ccc2nc(COc3ccc(-c4nn(C)cc4-c4ccncc4)cc3)ccc2c1` ?
Output line: 5.01

Input line: Queued: `COc1cc2ccccc2nc1COc1ccc(-c2c(-c3ccncc3)cnn2C)cc1`
Output line: 4.77

Input line: Queued: `COc1cc(COc2ccc(-c3c(-c4ccncc4)cnn3C)cc2)nc2ccccc12`
Output line: 5.32

###

# TARGET_OR_SYSTEM: cAMP and cAMP-inhibited cGMP 3',5'-cyclic phosphodiesterase 10A (Homo sapiens, UniProt Q9Y233)
# Sequence (Q9Y233 whole entry, the tested form may be a part): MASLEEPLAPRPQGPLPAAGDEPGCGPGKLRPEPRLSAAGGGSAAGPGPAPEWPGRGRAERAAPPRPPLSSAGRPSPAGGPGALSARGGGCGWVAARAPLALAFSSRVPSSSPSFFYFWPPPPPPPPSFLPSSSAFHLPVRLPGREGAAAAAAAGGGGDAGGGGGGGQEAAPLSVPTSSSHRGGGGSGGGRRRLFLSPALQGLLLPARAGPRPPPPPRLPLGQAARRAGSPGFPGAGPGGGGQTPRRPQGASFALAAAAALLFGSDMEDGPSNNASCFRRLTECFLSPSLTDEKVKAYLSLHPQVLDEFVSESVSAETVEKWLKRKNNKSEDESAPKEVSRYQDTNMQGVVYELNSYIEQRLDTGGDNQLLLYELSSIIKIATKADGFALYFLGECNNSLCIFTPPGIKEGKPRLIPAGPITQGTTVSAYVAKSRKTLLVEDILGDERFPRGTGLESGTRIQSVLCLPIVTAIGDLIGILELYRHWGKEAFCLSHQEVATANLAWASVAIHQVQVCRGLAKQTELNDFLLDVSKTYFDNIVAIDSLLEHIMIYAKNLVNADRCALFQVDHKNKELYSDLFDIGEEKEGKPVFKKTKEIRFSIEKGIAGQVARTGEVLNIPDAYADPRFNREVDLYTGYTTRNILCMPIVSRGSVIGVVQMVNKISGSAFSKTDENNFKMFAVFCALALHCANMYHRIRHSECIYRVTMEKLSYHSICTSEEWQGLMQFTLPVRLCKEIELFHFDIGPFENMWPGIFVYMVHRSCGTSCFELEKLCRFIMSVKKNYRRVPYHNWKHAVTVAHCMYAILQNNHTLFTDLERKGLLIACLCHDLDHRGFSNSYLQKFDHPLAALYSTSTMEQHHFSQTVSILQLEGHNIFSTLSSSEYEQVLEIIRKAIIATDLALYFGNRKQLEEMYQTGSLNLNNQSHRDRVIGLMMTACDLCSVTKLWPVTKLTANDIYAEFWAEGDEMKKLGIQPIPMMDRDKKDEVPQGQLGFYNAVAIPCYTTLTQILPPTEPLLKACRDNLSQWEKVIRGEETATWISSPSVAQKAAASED
# TEST_SUMMARY: Inhibition of human recombinant PDE10A catalytic domain assessed reduction in [3H]cAMP hydrolysis preincubated with enzyme for 5 mins prior to substrate addition measured after 20 mins by scintillation proximity assay
Below, each entry is listed alongside its reported IC50.
Could you give me the number in nM? Just the number is fine.

COc1cccc2ccc(CNc3ccc(-c4nn(C)cc4-c4ccncc4)cc3)nc12 = 10900
COc1ccc2ccc(CNc3ccc(-c4nn(C)cc4-c4ccncc4)cc3)nc2c1 = 7400
COc1ccc2nc(CNc3ccc(-c4nn(C)cc4-c4ccncc4)cc3)ccc2c1 = 7500

Input line: Which measured IC50 value corresponds to `COc1cccc2ccc(CSc3ccc(-c4nn(C)cc4-c4ccncc4)cc3)nc12` ?
Output line: 635

Input line: Queued: `COc1cc(COc2ccc(-c3c(-c4ccncc4)cnn3C)cc2)nc2ccccc12`
Output line: 0.36

Input line: Queued: `COc1cccc2nc(COc3ccc(-c4c(-c5ccncc5)cnn4C)cc3)ccc12`
Output line: 81.4

Input line: Queued: `COc1cccc2ccc(COc3ccc(-c4c(-c5ccncc5)cnn4C)cc3)nc12`
Output line: 199

Input line: Queued: `COc1cc2ccccc2nc1COc1ccc(-c2nn(C)cc2-c2ccncc2)cc1`
Output line: 0.4

Input line: Queued: `COc1cccc2nc(COc3ccc(-c4nn(C)cc4-c4ccncc4)cc3)ccc12`
Output line: 60

Input line: Queued: `COc1cc(CNc2ccc(-c3c(-c4ccncc4)cnn3C)cc2)nc2ccccc12`
Output line: 645
